test system: Rattus norvegicus; assay: Antihyperlipidemic activity in Charles Foster rat assessed as reduction of triton WR-1339-induced plasma protein level at 100 mg/kg, po after 18 hrs; format: functional; parameters: scale not given: the % may be the effect or the level left
Mark label 1 only when Activity stays strictly below 20%. Values equal to the cut-off are label 0.

[[record]]
compound = "Cc1ccc(C(=O)CNC(=O)c2ccc(Cl)c([N+](=O)[O-])c2)cc1"
classname = "label 1"

[[record]]
compound = "Cc1ccc(C(=O)CNC(=O)Cc2cccnc2)cc1"
classname = "label 1"

[[record]]
compound = "COc1cc(/C=C/C(=O)NCC(O)c2ccc(C)cc2)ccc1O (mixture of isomers)"
classname = "label 0"

[[record]]
compound = "Cc1ccc(C(=O)CNC(=O)CCc2cccnc2)cc1"
classname = "label 0"

[[record]]
compound = "Cc1ccc(C(O)CNC(=O)/C=C/c2ccc(Cl)c(Cl)c2)cc1 (racemic)"
classname = "label 1"

[[record]]
compound = "Cc1ccc(C(=O)CNC(=O)c2cccnc2)cc1"
classname = "label 1"

[[record]]
compound = "Cc1ccc(C)c(OCCCC(C)(C)C(=O)O)c1 [GEMFIBROZIL]"
classname = "label 0"

[[record]]
compound = "COc1ccc([C@@H](O)CNC(=O)/C=C/c2ccccc2)cc1 [AEGELINE]"
classname = "label 0"

[[record]]
compound = "Cc1ccc(C(O)CNC(=O)c2ccc(Cl)c([N+](=O)[O-])c2)cc1 (racemic)"
classname = "label 1"

[[record]]
compound = "Cc1ccc(C(=O)CNC(=O)/C=C/c2ccc(OS(=O)(=O)c3ccc(C)cc3)cc2)cc1"
classname = "label 1"

[[record]]
compound = "Cc1ccc(C(O)CNC(=O)/C=C/c2ccc(O)cc2)cc1 (mixture of isomers)"
classname = "label 1"

[[record]]
compound = "Cc1ccc(C(O)CNC(=O)/C=C/c2ccccc2O)cc1 (mixture of isomers)"
classname = "label 1"

[[record]]
compound = "Cc1ccc(C(=O)CNC(=O)/C=C/c2ccc(Cl)c(Cl)c2)cc1"
classname = "label 1"

[[record]]
compound = "Cc1ccc(C(O)CNC(=O)Cc2cccnc2)cc1 (racemic)"
classname = "label 0"

[[record]]
compound = "COc1cc(/C=C/C(=O)NCC(=O)c2ccc(C)cc2)ccc1O"
classname = "label 1"

[[record]]
compound = "COc1ccc(CC(=O)NCC(=O)c2ccc(C)cc2)cc1OC"
classname = "label 1"

[[record]]
compound = "Cc1ccc(C(=O)CNC(=O)Cc2ccc(F)cc2)cc1"
classname = "label 1"

[[record]]
compound = "Cc1ccc(C(=O)CNC(=O)/C=C/c2ccccc2O)cc1"
classname = "label 1"


* * *

test system: Rattus norvegicus; assay: Antihyperlipidemic activity in Charles Foster rat assessed as reduction of triton WR-1339-induced plasma total cholesterol level at 100 mg/kg, po after 18 hrs; format: functional; parameters: scale not given: the % may be the effect or the level left
Each record gets a class by Activity: low value: < 7%; medium value: ≥ 7% and < 20%; high value: ≥ 20%

[[record]]
molecule = "Cc1ccc(C(O)CNC(=O)Cc2cccnc2)cc1 (racemic)"
classname = "high value"

[[record]]
molecule = "Cc1ccc(C(=O)CNC(=O)Cc2ccc(F)cc2)cc1"
classname = "medium value"

[[record]]
molecule = "Cc1ccc(C(=O)CNC(=O)/C=C/c2ccccc2O)cc1"
classname = "medium value"

[[record]]
molecule = "Cc1ccc(C)c(OCCCC(C)(C)C(=O)O)c1 [GEMFIBROZIL]"
classname = "high value"

[[record]]
molecule = "Cc1ccc(C(O)CNC(=O)c2ccc(Cl)c([N+](=O)[O-])c2)cc1 (racemic)"
classname = "low value"

[[record]]
molecule = "Cc1ccc(C(=O)CNC(=O)c2ccc(Cl)c([N+](=O)[O-])c2)cc1"
classname = "low value"

[[record]]
molecule = "Cc1ccc(C(=O)CNC(=O)/C=C/c2ccc(O)cc2)cc1"
classname = "high value"

[[record]]
molecule = "COc1ccc([C@@H](O)CNC(=O)/C=C/c2ccccc2)cc1 [AEGELINE]"
classname = "high value"

[[record]]
molecule = "Cc1ccc(C(=O)CNC(=O)CCc2cccnc2)cc1"
classname = "high value"

[[record]]
molecule = "COc1cc(/C=C/C(=O)NCC(O)c2ccc(C)cc2)ccc1O (mixture of isomers)"
classname = "high value"

[[record]]
molecule = "Cc1ccc(C(=O)CNC(=O)/C=C/c2ccc(Cl)c(Cl)c2)cc1"
classname = "medium value"

[[record]]
molecule = "Cc1ccc(C(=O)CNC(=O)c2cccnc2)cc1"
classname = "low value"

[[record]]
molecule = "Cc1ccc(C(O)CNC(=O)/C=C/c2ccc(Cl)c(Cl)c2)cc1 (racemic)"
classname = "medium value"

[[record]]
molecule = "COc1ccc(CC(=O)NCC(=O)c2ccc(C)cc2)cc1OC"
classname = "medium value"

[[record]]
molecule = "COc1cc(/C=C/C(=O)NCC(=O)c2ccc(C)cc2)ccc1O"
classname = "low value"

[[record]]
molecule = "Cc1ccc(C(O)CNC(=O)/C=C/c2ccccc2O)cc1 (mixture of isomers)"
classname = "medium value"

